Reference source for all entries: ChEMBL document CHEMBL4831553

Quick reference: IC50 of the listed items.
# Test system: MOLM-13
# run.description: Antiproliferative activity against human MOLM-13 assessed as reduction in cell viability incubated for 72 hrs by Cell titer-Glo assay
# Type: functional, cell-based
# condition.set: MOLM-13, 72 h
measurement.label: IC50 (nM)

- CCn1c(CO)nn(-c2nc(OC(C)C(F)(F)F)c3c(Oc4c(F)cccc4Cl)nccc3c2F)c1=O (stereo unspecified): 0.4
- CCn1c(CO)nn(-c2cc(O[C@@H](C)C(F)(F)F)c3c(Oc4c(F)ccc(OCCOC)c4Cl)nccc3c2)c1=O: 0.3
- CCn1c(CO)nn(-c2cc(O[C@@H](C)C(F)(F)F)c3c(Oc4c(F)ccc(OC)c4Cl)nccc3c2)c1=O: 0.3
- CCn1c(CO)nn(-c2nc(O[C@@H](C)C(F)(F)F)c3c(Nc4c(F)cccc4Cl)nncc3c2F)c1=O: 0.46
- CCn1c(CO)nn(-c2nc(O[C@@H](C)C(F)(F)F)c3c(Oc4c(F)cccc4Cl)nncc3c2F)c1=O: 0.2
- CCn1c(CO)nn(-c2cc(O[C@@H](C)C(F)(F)F)c3c(Oc4c(F)ccc(N(C)C)c4Cl)nccc3c2)c1=O: 0.3

---

# experimental.target: UniProt:Q02127
# Sequence (Q02127 whole entry): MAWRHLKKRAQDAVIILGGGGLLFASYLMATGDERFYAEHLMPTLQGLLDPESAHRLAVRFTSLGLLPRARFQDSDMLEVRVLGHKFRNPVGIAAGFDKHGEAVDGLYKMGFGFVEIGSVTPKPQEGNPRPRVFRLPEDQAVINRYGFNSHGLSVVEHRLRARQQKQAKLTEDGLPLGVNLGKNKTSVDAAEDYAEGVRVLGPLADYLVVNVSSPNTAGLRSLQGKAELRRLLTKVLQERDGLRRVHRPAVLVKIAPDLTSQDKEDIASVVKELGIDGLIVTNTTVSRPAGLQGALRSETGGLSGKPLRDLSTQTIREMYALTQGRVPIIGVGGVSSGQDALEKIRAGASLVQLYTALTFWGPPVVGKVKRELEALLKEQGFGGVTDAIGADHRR
pIC50: −log10 of the molar value.
measurement.label: pIC50

• CCn1c(CO)nn(-c2nc(O[C@@H](C)C(F)(F)F)c3c(Nc4c(F)cccc4Cl)nncc3c2F)c1=O = 9.42
• CCn1c(CO)nn(-c2cc(O[C@@H](C)C(F)(F)F)c3c(Oc4c(F)ccc(N(C)C)c4Cl)nccc3c2)c1=O = 9.40
• CCn1c(CO)nn(-c2cc(O[C@@H](C)C(F)(F)F)c3c(Oc4c(F)ccc(OC)c4Cl)nccc3c2)c1=O = 9.52
